molecular target: Protein kinase C alpha type (Homo sapiens); experiment: Displacement of [3H]PDBu from full length recombinant human PKCalpha expressed in baculovirus expression system after 5 mins by scintillation counting
Consider the following partition of reported Ki into named classes: low class (below 30 nM), middle class (30 nM to below 100 nM), high class (100 nM or more)

Each compound maps to one class by Ki. Which class for COc1ccc(/C=C2\CC(CO)(COC(=O)C(C)(C)C)OC2=O)cc1 (stereo unspecified) ?
middle class

Next entry: O=C1OC(CO)(COC(=O)c2ccc(Cl)cc2)C/C1=C\c1ccc(Cl)cc1 (stereo unspecified)
low class

Next entry: Cn1cc(/C=C2\CC(CO)(COC(=O)C3CCCCC3)OC2=O)c2ccccc21 (stereo unspecified)
high class

Next entry: O=C1OC(CO)(COC(=O)c2ccc(Cl)cc2)C/C1=C\c1ccccn1 (stereo unspecified)
high class

Next entry: CN(C)c1ccc(/C=C2\CC(CO)(COC(=O)c3ccc(N(C)C)cc3)OC2=O)cc1 (stereo unspecified)
high class

Next entry: CCCCn1cc(/C=C2\CC(CO)(COC(=O)C(C)(C)C)OC2=O)c2ccccc21 (stereo unspecified)
low class

Next entry: Cn1cc(/C=C2\CC(CO)(COC(=O)/C=C/c3ccccn3)OC2=O)c2ccccc21 (stereo unspecified)
high class

Next entry: Cn1cc(/C=C2\CC(CO)(COC(=O)C3CCC(C(C)(C)C)CC3)OC2=O)c2ccccc21 (stereo unspecified)
middle class

Next entry: CN(C)c1ccc(/C=C2\CC(CO)(COC(=O)c3ccc(Cl)cc3)OC2=O)cc1 (stereo unspecified)
low class

Next entry: Cn1cc(/C=C2/CC(CO)(COC(=O)C(C)(C)C)OC2=O)c2cc([N+](=O)[O-])ccc21 (stereo unspecified)
high class

---

molecular target: UniProt:P17252; experiment: Displacement of [3H]PDBu from full length recombinant human PKCalpha expressed in baculovirus expression system after 5 mins by scintillation counting
metric: Ki (nM)
Answers are plain numbers, in nM.

Here are 5 compounds together with their reported answers.
>  <compound>
Cn1cc(/C=C2\CC(CO)(COC(=O)/C=C/c3ccccc3)OC2=O)c2ccccc21 (stereo not given)

>  <Ki / nM>
439

$$$$
>  <compound>
CN(C)c1ccc(/C=C2\CC(CO)(COC(=O)C(C)(C)C)OC2=O)cc1 (stereo not given)

>  <Ki / nM>
65.9

$$$$
>  <compound>
CC(C)(C)C(=O)OCC1(CO)C/C(=C\c2cn(CC3CC3)c3ccccc23)C(=O)O1 (stereo not given)

>  <Ki / nM>
29

$$$$
>  <compound>
Cn1cc(/C=C2\CC(CO)(COC(=O)C(C)(C)C)OC2=O)c2ccccc21 (stereo not given)

>  <Ki / nM>
127

$$$$
>  <compound>
COc1ccc(C(=O)OCC2(CO)C/C(=C\c3cn(C)c4ccccc34)C(=O)O2)cc1 (stereo not given)

>  <Ki / nM>
446

$$$$

Please give Ki for each item listed below.
1. CC(C)(C)C(=O)OCC1(CO)C/C(=C/c2csc3ccccc23)C(=O)O1 (stereo not given)
2. COc1ccc(/C=C2\CC(CO)(COC(=O)c3ccc(N(C)C)cc3)OC2=O)cc1 (stereo not given)
3. CC(C)(C)C(=O)OCC1(CO)C/C(=C\c2ccc(Cl)cc2)C(=O)O1 (stereo not given)
4. COc1ccc(C(=O)OCC2(CO)C/C(=C\c3ccc(N(C)C)cc3)C(=O)O2)cc1 (stereo not given)
5. Cn1cc(/C=C2/CC(CO)(COC(=O)C(C)(C)C)OC2=O)c2cc(Cl)ccc21 (stereo not given)
6. COc1ccc2c(c1)c(/C=C1\CC(CO)(COC(=O)C(C)(C)C)OC1=O)cn2C (stereo not given)

1. 37
2. 82.2
3. 13.6
4. 128
5. 79.1
6. 249
